Task for the reader: assign each of the following binders its reported Kd.
# test_system: T1, recombinant human Trop-2-his protein (ACCESSION NO.: NP_002344.2, AA 1-274) (human, UniProt P09758 27-274)
# T1 construct: range 27-274; also called recombinant human Trop-2 protein; recombinant human Trop-2 extracellular domain; not shown: his tag
# T1 sequence (looked up): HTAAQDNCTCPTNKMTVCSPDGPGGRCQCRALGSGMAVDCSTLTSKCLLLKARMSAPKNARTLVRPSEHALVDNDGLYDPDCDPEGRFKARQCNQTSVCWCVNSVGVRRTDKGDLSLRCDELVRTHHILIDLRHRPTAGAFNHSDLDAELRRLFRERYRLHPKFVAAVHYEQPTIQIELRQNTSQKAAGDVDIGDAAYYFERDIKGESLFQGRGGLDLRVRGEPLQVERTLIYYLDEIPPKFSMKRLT
# assay_comment: BLI, antibody on AHC sensor, Trop-2-his 60 nM
Dear colleague, please return just the value in nM, with no unit written.

Problem: // Kd lookup, key: h11-4-11 (antibody, human IgG1, kappa, name in Kabat numbering, V domains shown) VH: EVQLVQSGAEVKKPGASVKVSCKASGYTFTSYWINWVRQAPGQGLEWMGNIYPSNSYTNYNQKFKDRVTMTRDTSTSTVYMELSSLRSEDTAVYYCSSYRSGGFAYWGQGTLVTVSS VL: EIVLTQSPATLSLSPGERATLSCRASQNIGTSIEWYQQKPGQAPRLLIEFASESISGIPARFSGSGSGTDFTLTISSLEPEDFAVYYCQQSNSWPFTFGGGTKVEIKR
Solution: 0.375

Problem: Continue with h11-4-3 (antibody, human IgG1, kappa, V domains shown) VH: QVQLVQSGAEVKKPGASVKVSCKASGYTFTSYWINWVRQAPGQGLEWMGNIYPSNSYTNYNQKFKDRVTMTRDTSTSTVYMELSSLRSEDTAVYYCASYRSDGFAYWGQGTLVTVSS VL: EIVLTQSPATLSLSPGERATLSCRASQNIGTSIHWYQQKPGQAPRLLIYFASESISGIPARFSGSGSGTDFTLTISSLEPEDFAVYYCQQSNSWPFTFGGGTKVEIKR
Solution: 0.868

Problem: Continue with h11-4-7 (antibody, human IgG1, kappa, name in Kabat numbering, V domains shown) VH: QVQLVQSGAEVKKPGASVKVSCKASGYTFTSYWINWVRQAPGQGLEWMGNIYPSNSYTNYNQKFKDRVTMTRDTSTSTVYMELSSLRSEDTAVYYCASYRSDGFAYWGQGTLVTVSS VL: EIVLTQSPATLSLSPGERATLSCRASQNIGTSIHWYQQKPGQAPRLLIEFASESISGIPARFSGSGSGTDFTLTISSLEPEDFAVYYCQQSNSWPFTFGGGTKVEIKR
Solution: 0.803
